biological target: hVR1 (Homo sapiens, UniProt Q8NER1); construct: expressed in transfected cells; test: hVR1 FLIPR (Fluorometric Image Plate Reader) screening assay, IC50 determination; format: cell-based; conditions: agonist capsaicin (50 nM); CHO cells stably expressing hVR1
Sequence (Q8NER1 whole entry): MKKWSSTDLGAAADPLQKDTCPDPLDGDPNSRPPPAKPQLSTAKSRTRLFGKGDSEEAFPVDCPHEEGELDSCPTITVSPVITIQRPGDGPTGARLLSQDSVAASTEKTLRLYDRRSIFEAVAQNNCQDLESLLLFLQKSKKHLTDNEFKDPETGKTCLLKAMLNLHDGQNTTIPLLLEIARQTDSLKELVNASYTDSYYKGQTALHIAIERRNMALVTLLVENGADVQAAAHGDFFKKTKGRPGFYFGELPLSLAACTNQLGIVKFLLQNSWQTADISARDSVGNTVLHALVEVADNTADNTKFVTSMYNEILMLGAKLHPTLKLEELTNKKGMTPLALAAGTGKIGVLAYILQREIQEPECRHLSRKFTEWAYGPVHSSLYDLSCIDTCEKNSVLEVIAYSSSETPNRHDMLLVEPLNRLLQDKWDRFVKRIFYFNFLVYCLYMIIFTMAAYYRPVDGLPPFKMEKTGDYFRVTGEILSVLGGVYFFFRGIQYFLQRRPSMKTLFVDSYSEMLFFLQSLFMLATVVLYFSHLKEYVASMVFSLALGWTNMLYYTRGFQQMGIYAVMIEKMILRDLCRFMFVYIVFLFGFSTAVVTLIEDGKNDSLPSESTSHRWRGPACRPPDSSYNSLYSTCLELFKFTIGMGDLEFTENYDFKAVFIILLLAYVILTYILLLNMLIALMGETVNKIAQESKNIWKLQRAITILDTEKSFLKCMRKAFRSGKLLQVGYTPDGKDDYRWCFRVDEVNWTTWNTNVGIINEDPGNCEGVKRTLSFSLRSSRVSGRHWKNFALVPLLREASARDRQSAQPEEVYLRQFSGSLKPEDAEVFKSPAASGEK
reported property: IC50 (nM)

P: O=C(Cn1cnc2cccc([N+](=O)[O-])c21)Nc1cc(F)c(F)c(F)c1 [Example 14]
Q: COCCOc1cc(NC(=O)Cn2cnc3cccc([N+](=O)[O-])c32)cc(OC)c1 [Example 10]
R: COc1cc(NC(=O)Cn2cnc3cccc(C(C)=O)c32)cc(OC)c1 [Example 35]
S: COc1cc(NC(=O)Cn2cnc3cccc(C(C)=O)c32)cc(C(F)(F)F)c1 [Example 32]
[Q] Given 4 molecules, produce a descending ranking by IC50. Answer format: the labels, ordered as requested.
[A] R, S, P, Q

----------
target: hVR1 (Homo sapiens); construct: expressed in transfected cells; experiment: hVR1 FLIPR (Fluorometric Image Plate Reader) screening assay, IC50 determination; assay type: cell-based; settings: agonist low pH (MES buffer pH 5.2); CHO cells stably expressing hVR1
reported property: IC50 (nM)

O=C(Cn1cnc2cccc([N+](=O)[O-])c21)Nc1cc(F)c(F)c(F)c1 : 108
COCCOc1cc(NC(=O)Cn2cnc3cccc([N+](=O)[O-])c32)cc(OC)c1 : 45

A: COc1cc(NC(=O)Cn2cnc3cccc(C(C)=O)c32)cc(C(F)(F)F)c1
B: COc1cc(NC(=O)Cn2cnc3cccc(C(C)=O)c32)cc(OC)c1
[Q] Returns: the argument ( A or B ) having the larger IC50. Your answer should be the label of the entry you select.
[A] B
(B: 508 nM, A: 53 nM)
